Tested on: Saccharomyces cerevisiae
Experiment: protein stability index of tFT-peptide fusion (C-terminal peptide) (PSI (0-1 scale)); higher = more stable (slower turnover);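 also: PSI is a weighted mean of sequencing reads over stability bins, variants kept only with over 10 reads, mCherry proximal and sfGFP distal, peptide attached via GGGS linker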
Conditions: genetic background: wild type; temperature: 30 C
Could you please classify the records by protein stability index using these ranges: low bin: < 0.6; mid bin: ≥ 0.6 and < 0.7; high bin: ≥ 0.7

Enquiry: Which bin, given its protein stability index, does TTLSMYFCMCVL occupy?
Return: mid bin

Enquiry: Query FSPHTPPRRLPL next
Return: high bin

Enquiry: Queued: ACSSSLPPSSPP
Return: mid bin

Enquiry: What about LYSPSLRPPLLL ?
Return: high bin

Enquiry: Note, next up: RYYKKQNWKIGL
Return: mid bin

Enquiry: Entry HSYMFIRNTIRI please
Return: mid bin

Enquiry: // same read-out, input: RPSHTSVYRLLH
Return: low bin

Enquiry: Quick one: LFTDIQAPSVKH
Return: high bin

Enquiry: Also need MLPPRRAPFPPP , thanks.
Return: high bin

Enquiry: And for SRRWRPDSSRIQ ?
Return: mid bin

Enquiry: # iterate: LLRFFPCFLGVN
Return: low bin

Enquiry: Next: PPLPPPPPAPAP
Return: mid bin

Enquiry: FAIPFVLFFRVT ?
Return: low bin

====

Test system: Saccharomyces cerevisiae
Test: protein stability index of tFT-peptide fusion (C-terminal peptide) (PSI (0-1 scale)); higher = more stable (slower turnover)
Conditions: genetic background: doa10 deletion; temperature: 30 C
measured_quantity: protein stability index
The response must contain the number and no unit.

Enquiry: Request: protein stability index, test system Saccharomyces cerevisiae, entry LEYCLATYLSAC
Return: 0.211

Enquiry: Let us now turn to FWSARAVVWWCW
Return: 0.449

Enquiry: Could you do the same for PVWLSFHFFLCA , please?
Return: 0.321

Enquiry: Now the sequence FQPLELFFVCVF
Return: 0.163

Enquiry: Consider next the sequence CWLFVWVRVISL in the same way.
Return: 0.103

Enquiry: Continue with SYGNGIPIRMLH
Return: 0.204

Enquiry: Do the same for FRCFVLPYFGRF please
Return: 0.372

Enquiry: What would you report for WLVVGGVVLLVV ?
Return: 0.175

Enquiry: And then KCEKGLYCCIAF , what is it?
Return: 0.516

Enquiry: Now consider LKCFLVLTFWFS .
Return: 0.184

Enquiry: Param item: FFVYFFLLLFWF
Return: 0.272

Enquiry: Record: FRVFYSFLLCLS
Return: 0.178

Enquiry: Record: HNLIRKHAKESS
Return: 0.171

Enquiry: What about KAEKNSKKTSTE ?
Return: 0.633

Enquiry: Now try VFRLLALLWRFF .
Return: 0.323

Enquiry: Continue with GTLVFTYLVLRC
Return: 0.365

Enquiry: Follow-up item: KLALVYLLIRGL
Return: 0.0641

Enquiry: Same lookup for KLRIVYAKVVCS , please.
Return: 0.247

Enquiry: Lookup FFFPFLCIAVSL
Return: 0.401

====

Tested on: Saccharomyces cerevisiae
Test: protein stability index of tFT-peptide fusion (C-terminal peptide) (PSI (0-1 scale)); higher = more stable (slower turnover)
Settings: genetic background: wild type; temperature: 30 C
Provide the recorded protein stability index for the entries that follow.
Just the number, please.

Enquiry: # query: protein stability index of entry GLCACTSFLVSW
Return: 0.697

Enquiry: Please answer likewise for VLHAGACARANR
Return: 0.708

Enquiry: Also check PLGFFHKQSATV
Return: 0.666

Enquiry: # repeat for SPPSPAFTPAPF
Return: 0.669

Enquiry: One more sequence: SVAWGGGVVEWG
Return: 0.661

Enquiry: What would you report for RRIFTLIARRLW ?
Return: 0.672

Enquiry: Follow-up entry: HPPHPPPSPCPP
Return: 0.733

Enquiry: PSPATCLCSPLP ?
Return: 0.706

Enquiry: Another: IGCSELSGLGGY
Return: 0.769

Enquiry: Also, SFHRICTYVLRP please.
Return: 0.634

Enquiry: Consider next the sequence EVIRGNEGGKER in the same way.
Return: 0.708

Enquiry: Then GCFVGCDHWGVV ?
Return: 0.67

Enquiry: Field entry: KIVNNTKKNKCH
Return: 0.226

Enquiry: Subsequent entry: YDVQIEFCVVEV
Return: 0.442

Enquiry: How about APPPLPPPTLPT ?
Return: 0.757

Enquiry: Then LIDYGLDVSLSL ?
Return: 0.703

Enquiry: Also SYLFRLLFATLP , if possible.
Return: 0.601

Enquiry: Consider next the sequence QSPRLTSGPQPL in the same way.
Return: 0.652

Enquiry: What would you report for PPPPTSPTSPEL ?
Return: 0.692

Enquiry: Similarly, SAGPVYAGGVAS ?
Return: 0.69

Enquiry: Moving on to WPSCKVHSPSPS
Return: 0.675

Enquiry: LRGCGSGAGWFL , same question.
Return: 0.667

Enquiry: Now the sequence HTPPPPRHPYKH
Return: 0.741

Enquiry: Moving on to GTVHQQGGPIDG
Return: 0.676

Enquiry: And then PPYPCRRPPPPP , what is it?
Return: 0.647

Enquiry: Now the same for FSLPSLLPDPPS
Return: 0.579

Enquiry: // next record RDGSNSNGKKKK
Return: 0.6

Enquiry: Now the same for SYSPRRRLNTPR
Return: 0.699

Enquiry: Record: GGRGGEGRGGSG
Return: 0.658

Enquiry: What about GFVGVGEEEIFG ?
Return: 0.722

Enquiry: Record: LWISDSGSLYFS
Return: 0.739

Enquiry: And what about the sequence SFLLGLCHFYGS ?
Return: 0.718

Enquiry: Also need LFTRSIRNLKSL , thanks.
Return: 0.452

Enquiry: // next record FLFASSGFLGRF
Return: 0.67

Enquiry: Try this sequence too: YFWWLWMSFWVG
Return: 0.47

Enquiry: Same question, VWDQTKKKKIKK this time
Return: 0.704

Enquiry: Record: PPPAPPHPPLRH
Return: 0.682

Enquiry: Also SPGPTLLSPPSP ?
Return: 0.691

Enquiry: Would you mind doing ADQVGRAVIIAS as well?
Return: 0.644

Enquiry: Next entry: MLHLNPVLHISG
Return: 0.653

Enquiry: Now consider DSSKFYTPATLL and answer again.
Return: 0.693

Enquiry: Quick one: VLFCSVSFGGGQ
Return: 0.614

Enquiry: SLLGFAGSCLLG ?
Return: 0.735

Enquiry: Moving on to GWRACGRGLVGK
Return: 0.712

Enquiry: Query RSSCVRGVTLAL next
Return: 0.695

Enquiry: Same question, FLLSFPCAHFLL this time
Return: 0.598

Enquiry: Again, but for LPPPPAPSSAPL
Return: 0.735

Enquiry: How about this sequence: VYRRKLDRLLCI
Return: 0.332

Enquiry: How about this sequence: PLLIPPPPTYPP
Return: 0.63

Enquiry: Now the sequence PPTPPPLRPSFS
Return: 0.704

Enquiry: What do you get for PSFPPLPLSTPP ?
Return: 0.762

Enquiry: # iterate: PLFPGLARLSSS
Return: 0.703

Enquiry: Next entry: IFGCPEFFCFLL
Return: 0.696

Enquiry: Another sequence to check: PSPQPTRPPGPL
Return: 0.704

Enquiry: Also check RASPPPPPPPPP
Return: 0.658

Enquiry: Again, but for RTKMKERTCEEG
Return: 0.697

Enquiry: Now consider SDSREAVLTEEP .
Return: 0.625

Enquiry: Now the sequence IKTQKNKQITKI
Return: 0.705

Enquiry: Same thing, different sequence: SCPSFVWLSFPQ
Return: 0.714

Enquiry: Continue with LIISDVTGFSHL
Return: 0.658

Enquiry: And LCPPLPPSPPRS ?
Return: 0.701

Enquiry: # iterate: DRPTPPPRSSPL
Return: 0.739

Enquiry: Could you do the same for MSSTLCMLPFSV , please?
Return: 0.771

Enquiry: Same read-out for DRTDTNVKWRKK ?
Return: 0.696

Enquiry: Would you kindly repeat that for YMVESVWVLLGT ?
Return: 0.49

Enquiry: Same lookup for GLGVVSVWSGGL , please.
Return: 0.703

Enquiry: # iterate: AQLPRSFAPPLR
Return: 0.868

Enquiry: Another sequence to look at: PSHPPPPSPTPP
Return: 0.754

Enquiry: What do we get for PDSASSLTPPPP ?
Return: 0.66

Enquiry: Another sequence: GGAMLMLAVEGV
Return: 0.609

Enquiry: What do you have for APPPPPPFPPLP ?
Return: 0.684

Enquiry: Another sequence: PPSPSPHPPPSH
Return: 0.842

Enquiry: GACSIVFYKVKR ?
Return: 0.653

Enquiry: // next record RGGGWVLEVLLG
Return: 0.519

Enquiry: Next sequence up: VVDPDVIGREIR
Return: 0.706

Enquiry: Moving on to the next sequence: NPVFPPPPHSQL
Return: 0.75

Enquiry: Next record, please: SLRMTVFTAPLS
Return: 0.654

Enquiry: Okay, and REPPFFRLSPQV ?
Return: 0.722

Enquiry: Next record, please: RLVAGETWAMSR
Return: 0.674

Enquiry: Can you handle RLPFLPPPPCPP next?
Return: 0.716

Enquiry: Same read-out for LSIFFCRCFSSF ?
Return: 0.59

Enquiry: # repeat for GGVGGAGGRNRG
Return: 0.674
